# assayedTarget: Cytochrome P450 2C9 (Homo sapiens)
# experimentNotes: Cytochrome panel assay with activity outcomes
# assaySetup: recombinant CYP, pro-luciferin dealkylation, luminescence, p450-cyp2c9; series mostly up to 57.1 µM
# Experimental: The P450 gene superfamily is involved in the metabolism and clearance of xenobiotics. This assay used various human CYP P450 isozymes to measure the dealkylation of various pro-luciferin substrates to luciferin. The luciferin is then measured by luminescence after the addition of a luciferase detection reagent. […] Inhibitors and some substrates limit the production of luciferin, and decrease measured luminescence. […] 8, Detection, 1 sec, ViewLux luminescent read […]
Screen size: about 16,000 compounds; about 4,000 (25%) were called active. Inconclusive results (about 26%) are left out. A selection follows.
measuredMetric: AC50

CCOC(OCC)P(=O)(O)CCCNCc1ccc(Cl)c(Cl)c1 = inactive
CCOc1ccc(C(=O)Nc2cnn(Cc3ccc(Cl)c(Cl)c3)c2)cc1 = 17.8 µM (active)
COc1ccc(C(=O)c2ccccc2)c(O)c1 = inactive
COc1ncc2nc(C)c(=O)n(-c3ccccc3)c2n1 = inactive
CCCCCCCCCCCCCC(=O)O[C@H](CC(=O)O)C[N+](C)(C)C = inactive
N#Cc1cccc(NC(=O)N2CC[C@@]3(CCCN(C(=O)c4ccncc4)C3)C2)c1 = inactive
CC(=O)N(/N=C1\Sc2ccccc2C1=O)c1ccccc1 = inactive
CC1(C)S[C@@H]2[C@H](NC(=O)[C@H](C(=O)O)c3ccsc3)C(=O)N2[C@H]1C(=O)O = inactive
COc1ccc2oc(C(=O)c3ccccc3)c(N)c2c1 = 11.2 µM (active)
COc1ccc2nccc(C(=O)O)c2c1 = inactive
CC(C)OCCCNC(=O)C1CC(=O)N(C2CCCCCCC2)C1 (configuration not stated) = inactive
CNc1csc(C)c(C)c1=O = inactive

----------
# assayedTarget: Cytochrome P450 2C9 (Homo sapiens)
# experimentNotes: Cytochrome panel assay with activity outcomes
# assaySetup: recombinant CYP, pro-luciferin dealkylation, luminescence, p450-cyp2c9; series mostly up to 57.1 µM
Screen size: about 16,000 compounds; about 4,000 (25%) were called active. Inconclusive results (about 26%) are left out. These entries were drawn from the full list.
measuredMetric: AC50

O=C1C2CCCN2c2ccc(S(=O)(=O)N3CCOCC3)cc2N1Cc1cccc(C(F)(F)F)c1 (stereo not given) = 5.01 µM (active)
COc1ccc(C(=O)Nc2ccc(OCC(F)(F)C(F)F)c(C(F)(F)F)c2)cc1OC = 7.94 µM (active)
O=C1c2cccc3cccc(c23)C(=O)N1CC1CCN(CC(O)COc2ccc3ccccc3c2)CC1 (stereo not given) = 0.891 µM (active)
CCOC(=O)c1ccc(OC(=O)CCCCCN=C(N)N)cc1 = inactive
Cc1cc(NC(=O)CCCC(=O)OCC(F)(F)C(F)F)cc(C)c1C(=O)O = inactive
c1ccc(-c2nc(NCc3cccnc3)c3ccccc3n2)cc1 = 3.55 µM (active)
O=C(c1ccc(S(=O)(=O)N2CCCCCC2)cc1)N1CCC(CN2C(=O)c3cccc4cccc(c34)C2=O)CC1 = inactive
O=C(Cn1cc(C(F)(F)F)ccc1=O)N1CCN(S(=O)(=O)c2ccccc2)CC1 = inactive
O=S(=O)(c1cccc(C(F)(F)F)c1)N1CCC(c2cc(-c3cccc4ccccc34)n[nH]2)CC1 = inactive
CCOC(=O)c1ccc(Nc2nc(=O)c3cccnc3s2)cc1 = 7.94 µM (active)

Sourced from PubChem BioAssay AID1851
